# Tested on: NCI-H1299
# run.description: Antiproliferative activity against human NCI-H1299 cells after 72 hrs by Alamar blue assay
# Type: functional
# measurement.context: NCI-H1299, 72 h
Listing: GI50 of selected molecules
Answer format: numeric, µM implied, no suffix.

Exercise: Form: Entry = Cc1cccc(C(CC[C@@H](N)C(=O)O)(c2ccccc2)c2ccccc2)c1 | System = NCI-H1299 | GI50 = ____
Key: 0.132

###

# Test system: NCI-H1299
# run.description: Antiproliferative activity against human NCI-H1299 cells after 72 hrs by Alamar blue assay
# Format: functional
# measurement.context: NCI-H1299, 72 h
value.type: GI50 (µM)
Answer format: numeric, µM implied, no suffix.

See these solved cases before continuing.
1. Cc1cccc(C(CC[C@H](N)C(=O)O)(c2ccccc2)c2ccccc2)c1; 0.281
2. Cc1ccc(C(CCCN)(c2ccccc2)c2ccccc2)cc1; 0.376
3. Cc1ccc(C(CC[C@H](N)C(=O)O)(c2ccccc2)c2ccccc2)cc1; 0.305
4. NC(CCC(c1ccccc1)(c1ccccc1)c1ccccc1)C(=O)O (racemic); 2.83
5. NCCCC(c1ccccc1)(c1ccccc1)c1ccccc1; 0.964
6. N[C@@H](CCC(c1ccccc1)(c1ccccc1)c1ccccc1)C(=O)O; 4.02

Exercise: Would you kindly share the measured GI50 for N[C@@H](CSC(c1ccccc1)(c1ccccc1)c1ccc2ccccc2c1)C(=O)O ?
Key: 0.227

Exercise: Try the compound Cc1cccc(C(CCC(N)C(=O)O)(c2ccccc2)c2ccccc2)c1 (racemic)
Key: 0.137

Exercise: Try the compound N[C@H](CCC(c1ccccc1)(c1ccccc1)c1ccccc1)C(=O)O
Key: 1.32

###

# run.description: Antiproliferative activity against human hTERT-HME1 cells after 72 hrs by Alamar blue assay
# Format: cell-based
value.type: GI50 at 72 h

1. Cc1ccc(C(=O)N(CCCN)[C@@H](c2nc3cc(Cl)ccc3c(=O)n2Cc2ccccc2)C(C)C)cc1 [ISPINESIB]; 32 nM

Exercise: Would you kindly share the measured GI50 at 72 h for NCCCC(c1ccccc1)(c1ccccc1)c1ccc(Cl)cc1 ?
Key: 308 nM

Exercise: Try the compound NC(CCC(c1ccccc1)(c1ccccc1)c1ccccc1)C(=O)O (racemic)
Key: 494 nM

Exercise: Try the compound Cc1ccc(C(CC[C@@H](N)C(=O)O)(c2ccccc2)c2ccccc2)cc1
Key: 27 nM

###

# run.description: Lipophilicity, Log P of the compound
# Type: physicochemical
# measurement.context: octanol/water; read-out: logP
value.type: logP

Exercise: Would you kindly share the measured logP for Cc1cccc(C(CCC(N)C(=O)O)(c2ccccc2)c2ccccc2)c1 (racemic) ?
Key: 2.45

###

Listing: solubility kinetic of selected molecules
# run.description: Turbidimetric solubility of the compound at pH 2
# Format: physicochemical
# measurement.context: buffer

1. Cc1cccc(C(CCCN)(c2ccccc2)c2ccccc2)c1; > 100 µM

Exercise: Would you kindly share the measured solubility kinetic for Cc1cccc(C(CCC(N)C(=O)O)(c2ccccc2)c2ccccc2)c1 (racemic) ?
Key: > 100 µM

###

# System: K562
Labelling field: enter Criterion met if recorded GI50 is less than 900 nM. Enter Criterion not met if it equals or exceeds that cut-off.

Solved entries (count: 6):
1) N[C@H](CCC(c1ccccc1)(c1ccccc1)c1ccccc1)C(=O)O; Criterion met
2) CCCc1cccc(C(SCCN)(c2ccccc2)c2ccccc2)c1; Criterion not met
3) NC(CCC(c1ccccc1)(c1ccccc1)c1ccccc1)C(=O)O (racemic); Criterion met
4) CC(C)c1cccc(C(SCCN)(c2ccccc2)c2ccccc2)c1; Criterion met
5) NCCSC(c1ccccc1)(c1ccccc1)c1ccc(CN)cc1; Criterion not met
6) N[C@@H](CSC(c1ccccc1)(c1ccccc1)c1cccc(Cl)c1)C(=O)O; Criterion not met

Exercise: Record N[C@@H](CCC(c1ccccc1)(c1ccccc1)c1ccccc1)C(=O)O : is its GI50 strictly below 900 nM?
Key: Criterion not met

Exercise: Try the compound Cc1ccc(C(CC[C@H](N)C(=O)O)(c2ccccc2)c2ccccc2)cc1
Key: Criterion met

Exercise: Try the compound NCCSC(c1ccccc1)(c1ccccc1)c1cccc(OC(F)(F)F)c1
Key: Criterion not met

Exercise: Try the compound Cc1ccc(C(=O)N(CCCN)[C@@H](c2nc3cc(Cl)ccc3c(=O)n2Cc2ccccc2)C(C)C)cc1
Key: Criterion met
